Where these numbers come from: patent US11667651B2

Below, each entry is listed with its recorded IC50.
assay_system: PIP4K2A (Homo sapiens)
assay_remarks: Kinase Assay PIP4K2 A (Table 2)
Assay type: biochemical
Set-up: 4 nM PIP4K2A (full length protein, SignalChem); purchased SignalChem
condition_label: compounds listed under IC50 bins
Sequence (P48426 whole entry): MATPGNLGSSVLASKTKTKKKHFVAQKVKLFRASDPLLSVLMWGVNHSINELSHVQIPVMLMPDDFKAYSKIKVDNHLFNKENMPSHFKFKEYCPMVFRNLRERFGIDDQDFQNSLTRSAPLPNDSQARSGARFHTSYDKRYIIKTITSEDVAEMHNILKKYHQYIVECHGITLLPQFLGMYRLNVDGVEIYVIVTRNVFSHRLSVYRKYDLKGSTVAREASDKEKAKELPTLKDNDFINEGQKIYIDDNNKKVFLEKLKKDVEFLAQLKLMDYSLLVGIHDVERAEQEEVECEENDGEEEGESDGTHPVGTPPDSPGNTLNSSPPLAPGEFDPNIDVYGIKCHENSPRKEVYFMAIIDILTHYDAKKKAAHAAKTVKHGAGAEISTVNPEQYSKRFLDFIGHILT

Cc1conc1-c1ccc(-c2ccc(Nc3cnc4c(c3)N3C(=O)CC[C@H]3CO4)nc2)cc1 [Example 283] : 1 to 10 nM
COc1nc(Nc2cnc3c(c2)N2C(=O)CC[C@H]2CO3)ncc1-c1ccc(-c2nncn2C)cc1 [Example 287] : 1 to 10 nM
CN(C)C(=O)c1ccc(-c2ccc(Nc3ccc(CNC(=O)c4cccc(NC(=O)OC(C)(C)C)c4)nc3)nc2)cc1 [Example 104] : 100 to 1000 nM
CN(C)C(=O)c1ccc(-c2ccc(Nc3cncc(NC(=O)CCc4cccc(NC(=O)OC(C)(C)C)c4)c3)nc2)cc1 [Example 101] : 10 to 100 nM
CN(C)C(=O)[C@H]1CC[C@H](c2ccc(Nc3cccnc3)nc2)CC1 [Example 7] : > 1000 nM

The measured IC50 associated with O=C1CCCN1c1ccc(-c2ccc(Nc3cnc4c(c3)N3C(=O)CC[C@@H]3CO4)nc2)cc1 [Example 85] reads 1 to 10 nM

The measured IC50 associated with O=C(c1cccc2ncc(Nc3ccc(-c4ccc(N5CCCC5=O)cc4)cn3)cc12)N1CCCC1 [Example 148] reads 100 to 1000 nM

The measured IC50 associated with CN(C)C(=O)c1ccc(-c2ccc(Nc3cncc(NC(=O)c4ccnc(N)c4)c3)nc2)cc1 [Example 131] reads 1 to 10 nM

The measured IC50 associated with CN(C)C(=O)c1ccc(-c2ccc(Nc3cncc(NC(=O)CCc4cccc(NC(=O)CN)c4)c3)nc2)cc1 [Example 107] reads 100 to 1000 nM

###

assay_system: PIP4K2A (Homo sapiens)
assay_remarks: ADP-glo kinase assay PIP4K 2A (Table 3)
Assay type: biochemical
Design: made in house; host or cells: E. coli
condition_label: compounds listed under IC50 bins
Sequence (P48426 whole entry, species assumed): as the sequence (P48426 whole entry) above
reported_metric: IC50

# count of solved cases: 5
O=C(c1cccc2ncc(Nc3ccc(-c4ccc(N5CCCC5=O)cc4)cn3)cc12)N1CCCC1 [Example 148] : > 1000 nM
O=C1CCCN1c1ccc(-c2cnc(Nc3cnc4c(c3)N3C(=O)C5(CC5)C[C@H]3CO4)nc2)cc1 [Example 205] : 1 to 10 nM
CN(C)C(=O)c1ccc(-c2ccc(Nc3cnc4c(c3)NCCO4)nc2)cc1 [Example 46] : 100 to 1000 nM
CN(C)C/C=C/C(=O)NCC(=O)Nc1ccc(CN2CCN(c3cncc(Nc4ccc(-c5ccc(N6CCCC6=O)cc5)cn4)c3)C2=O)cc1 [Example 172] : 1 to 10 nM
CC(C)c1cc(Nc2cnc3c(c2)N2C(=O)CC[C@H]2CO3)ncc1-c1ccc(N2CCCC2=O)c(F)c1 [Example 181] : 1 to 10 nM

The measured IC50 associated with CC(=O)N1CCOc2ncc(Nc3ccc(-c4ccc(N5CCCC5=O)cc4)cn3)cc21 [Example 86] reads 10 to 100 nM

The measured IC50 associated with CN(C)C/C=C/C(=O)NCCOCCOCCC(=O)Nc1cccc(C(=O)Nc2cncc(Nc3ccc(-c4ccc(C(=O)N(C)C)cc4)cn3)c2)c1 [Example 114] reads 100 to 1000 nM

###

Below, each entry is listed with its recorded IC50.
assay_system: PIP4K2A (Homo sapiens)
assay_remarks: ADP-glo kinase assay PIP4K 2A (Table 3)
Type: biochemical
Design: made in house; host or cells: E. coli
condition_label: compounds listed under IC50 bins

C[C@H](c1ccccc1)N1CCN(c2cncc(Nc3ccc(-c4ccc(C(=O)N(C)C)cc4)cn3)c2)C1=O [Example 81] : 1 to 10 nM
O=C1CCCN1c1ccc(-c2ccc(Nc3cnc4c(c3)N3C(=O)CC[C@H]3CO4)nc2)cc1F [Example 246] : 1 to 10 nM
CC1CN(C(=O)Nc2cncc(Nc3ccc(-c4ccc(N5CCCC5=O)cc4)cn3)c2)CCO1 (centres unmarked) [Example 250] : 100 to 1000 nM
CN1CCC(c2ccc(-c3ccc(Nc4cnc5c(c4)N4C(=O)CC[C@@H]4CO5)nc3)cc2)C1=O (some centres unmarked) [Example 269] : > 1000 nM
CN(C)C(=O)c1ccc(-c2ccc(Nc3cnc4c(c3)N(C(=O)c3ccccc3)CCO4)nc2)cc1 [Example 94] : 10 to 100 nM
O=C(Nc1cncc(Nc2ccc(-c3ccc(N4CCCC4=O)cc3)cn2)c1)c1nn[nH]n1 [Example 254] : 10 to 100 nM

Attention now turns to another entry.
The measured IC50 associated with CC(C)(C)C(=O)N1CCOc2ncc(Nc3ccc(-c4ccc(N5CCCC5=O)cc4)cn3)cc21 [Example 155] reads 1 to 10 nM

###

assay_system: PIP4K2A (Homo sapiens, UniProt P48426)
assay_remarks: ADP-glo kinase assay PIP4K 2A (Table 3)
Type: biochemical
Set-up: made in house; host or cells: E. coli
condition_label: compounds listed under IC50 bins
reported_metric: IC50

CCOc1ccc(C(=O)Nc2cncc(Nc3ccc(-c4ccc(N5CCCC5=O)cc4)cn3)c2)cn1 : 1 to 10 nM
O=C1CCCN1c1ccc(-c2ccc(Nc3cnc4c(c3)N(C(=O)CO)CCO4)nc2)cc1 : 10 to 100 nM

The measured IC50 associated with CN(C)C(=O)c1ccc(-c2ccc(Nc3cncc(N4CCN(Cc5cccc(N)c5)C4=O)c3)nc2)cc1 reads 1 to 10 nM

The measured IC50 associated with COc1nc(Nc2cnc3c(c2)N2C(=O)C4(CC4)C[C@H]2CO3)ncc1-c1ccc(N2CCCC2=O)cc1 reads ≤ 1 nM

The measured IC50 associated with Cc1nc(Nc2cnc3c(c2)N2C(=O)CC[C@H]2CO3)ccc1-c1ccc(N2CCCC2=O)cc1 reads 10 to 100 nM

###

assay_system: UniProt P48426
assay_remarks: Kinase Assay PIP4K2 A (Table 2)
Assay type: biochemical
Set-up: 4 nM PIP4K2A (full length protein, SignalChem); purchased SignalChem
condition_label: compounds listed under IC50 bins
pIC50: −log10 of the molar value.
Below, each entry is listed with its recorded pIC50.

CC(=O)N1CCOc2ncc(Nc3ccc(-c4ccc(N5CCCC5=O)cc4)cn3)cc21 : 8.00 to 9.00
CC(C)[C@@H]1NC(=O)N(c2cncc(Nc3ccc(-c4ccc(C(=O)N(C)C)cc4)cn3)c2)C1=O : 6.00 to 7.00
O=C1C[C@H](O)CN1c1ccc(-c2ccc(Nc3cnc4c(c3)N3C(=O)CC[C@H]3CO4)nc2)cc1 : 6.00 to 7.00

Attention now turns to another entry.
The measured pIC50 associated with CN(C)C(=O)c1ccc(-c2ccc(Nc3cncc(NC(=O)CCc4cccc(NC(=O)C5CCNCC5)c4)c3)nc2)cc1 reads 8.00 to 9.00

###

assay_system: PIP4K2A (Homo sapiens)
assay_remarks: ADP-glo kinase assay PIP4K 2A (Table 3)
Format: biochemical
Set-up: made in house; host or cells: E. coli
condition_label: compounds listed under IC50 bins
reported_metric: IC50

CN(C)C(=O)c1ccc(-c2ccc(Nc3cncc(NC(=O)CCc4cccc(NC(=O)CCCCCN)c4)c3)nc2)cc1 [Example 111] : 1 to 10 nM

Attention now turns to another entry.
The measured IC50 associated with CN(C)C/C=C/C(=O)Nc1cccc(CCC(=O)Nc2cccc(CN3CCN(c4cncc(Nc5ccc(-c6ccc(C(=O)N(C)C)cc6)cn5)c4)C3=O)c2)c1 [Example 225] reads 10 to 100 nM

###

assay_system: UniProt:P48426
assay_remarks: Kinase Assay PIP4K2 A (Table 2)
Assay type: biochemical
Parameters: 4 nM PIP4K2A (full length protein, SignalChem); purchased SignalChem
condition_label: compounds listed under IC50 bins
Below, each entry is listed with its recorded IC50.

# count of solved cases: 10
O=C1CCCN1c1ccc(-c2ccc(Nc3cnc4c(c3)N(C(=O)CO)CCO4)nc2)cc1 : 1 to 10 nM
CN(C)C(=O)c1ccc(-c2ccc(Nc3cncc(NC(=O)c4cccc(NC(=O)CCOCCOCCN)c4)c3)nc2)cc1 : 10 to 100 nM
CN(C)C(=O)c1ccc(-c2ccc(Nc3cncc(N(C)S(=O)(=O)C4CC4)c3)nc2)cc1 : 10 to 100 nM
CC(=O)N1CCOc2ncc(Nc3ccc(-c4ccc(C(=O)N(C)C)cc4)cn3)cc21 : 1 to 10 nM
O=C1CCCN1c1ccc(-c2ccc(Nc3cncc(N4CCN(Cc5cscn5)C4=O)c3)nc2)cc1 : 1 to 10 nM
O=C(c1ccc(-c2ccc(Nc3cccnc3)nc2)cc1)N1CCCC1 : > 1000 nM
CN(C)C(=O)c1ccc(-c2ccc(Nc3cncc(N4CCN(Cc5ccccc5)C4=O)c3)nc2)cc1 : 1 to 10 nM
COC(=O)Nc1cncc(Nc2ccc(-c3ccc(C(=O)N(C)C)cc3)cn2)c1 : 10 to 100 nM
Cc1cnnn1-c1ccc(-c2cnc(Nc3cnc4c(c3)N3C(=O)CC[C@H]3CO4)nc2C(C)C)cc1 : ≤ 1 nM
CN(C)C(=O)c1cc(F)c(-c2cnc(Nc3cncc(N4CCCC4=O)c3)cn2)cc1F : > 1000 nM

The measured IC50 associated with CN(C)CC(=O)Nc1cncc(Nc2ccc(-c3ccc(C(=O)N(C)C)cc3)cn2)c1 reads 100 to 1000 nM

The measured IC50 associated with CC(=O)N(C)c1ccc(-c2ccc(Nc3cccnc3)nc2)cc1 reads > 1000 nM

The measured IC50 associated with CC(C)S(=O)(=O)N(C)c1cncc(Nc2ccc(-c3ccc(C(=O)N(C)C)cc3)cn2)c1 reads 10 to 100 nM
